Tested on: HIV-2 (LAV-2 ROD)
Test: MT-4 cells challenged with HIV-2, viability by MTT method (antiviral activity)
Assay type: cell-based, Human Immunodeficiency Virus
Details: HIV-2 (ROD); MT-4 cells
Each entry below carries its reported SI (Selectivity Index, ratio of CC50 to IC50).

Exam item: Name the reported SI (Selectivity Index, ratio of CC50 to IC50) value associated with the compound c1cc(CN2CCCNCCOCCNCCC2)ccc1CN1CCCNCCOCCNCCC1 [Compound J, trihydrate]
Marked response: > 116

Exam item: What value of SI (Selectivity Index, ratio of CC50 to IC50) has been reported for the following compound? c1cc(CN2CCNCc3cccc(n3)CNCC2)cc(CN2CCNCc3cccc(n3)CNCC2)c1 [Compound H, trihydrate]
Marked response: 1.12 × 10^4

Exam item: Sample c1cc2nc(c1)CCNCCCN(Cc1ccc(CN3CCCNCCc4cccc(n4)CCNCCC3)cc1)CCCNCC2 — what was its SI (Selectivity Index, ratio of CC50 to IC50)?
Marked response: 102

Exam item: Which SI (Selectivity Index, ratio of CC50 to IC50) value belongs to c1cc2nc(c1)CNCCN(Cc1ccc(CN3CCNCc4cccc(n4)CNCC3)cc1)CCNC2 [Compound G, trihydrate] ?
Marked response: 31

Continuing:
Exam item: I would be grateful if you could share the reported SI (Selectivity Index, ratio of CC50 to IC50) for O=c1cc2[nH]c(c1)CNCCCN(Cc1ccc(CN3CCCNCc4cc(=O)cc([nH]4)CNCCC3)cc1)CCCNC2 .
Marked response: < 1

Exam item: If you can, please state the reported SI (Selectivity Index, ratio of CC50 to IC50) value of c1cc2nc(c1)CNCCN(Cc1ccc(CN3CCNCc4cccc(n4)CNCCNCc4cccc(n4)C3)cc1)Cc1cccc(n1)CNCCNC2 .
Marked response: < 1

Cited source: patent US5698546A
